# Test system: human SMAD7 mRNA
# assay_comment: Antisense inhibition of human SMAD7 mRNA expression in Hep3B cells by 3-10-3 cEt gapmers, 10,000 nM, electroporation (Example 2)
# Type: cell-based
# condition_label: Hep3B cells, electroporation, 10,000 nM antisense oligonucleotide, approximately 24 hours, RTS5062, relative to untreated control cells
Strand notation (5' to 3'): a small letter for the sugar, then the base; units joined by * are phosphorothioate-linked, units joined directly phosphodiester-linked; [ ] holds rarer units or linkages, { } end groups; capitals alone tell only the bases. k = constrained ethyl (cEt); [5mC] = 5-methylcytosine; d = 2'-deoxy (DNA)
readout_label: % inhibition of SMAD7 mRNA expression (%)
One number for each entry, in %.

INSERT INTO measurements (substance, measured_target, readout_label, recorded_number) VALUES
  ('799577 (kT*kT*k[5mC]*d[5mC]*dG*dA*dA*dA*dG*dG*dA*d[5mC]*d[5mC]*k[5mC]*kT*kT; antisense) [compound 799577]', 'human SMAD7 mRNA', '% inhibition of SMAD7 mRNA expression', 55),
  ('799652 (antisense kA*k[5mC]*kT*d[5mC]*dA*dA*dA*d[5mC]*d[5mC]*dA*dG*dG*dA*k[5mC]*kA*kG) [compound 799652]', 'human SMAD7 mRNA', '% inhibition of SMAD7 mRNA expression', 0);

Notebook: 799501 (antisense kA*kA*kA*dA*dG*dA*dG*d[5mC]*dA*dG*dA*d[5mC]*dG*kG*kG*k[5mC]) [compound 799501] , % inhibition of SMAD7 mRNA expression read as 0

====

# Tested on: human SMAD7 mRNA
# assay_comment: Dose-dependent inhibition of human SMAD7 mRNA expression in A431 cells, oligonucleotide added without transfection (Example 5, Study 1)
# Assay type: cell-based
# condition_label: 2.22 μM, approximately 48 hours
readout_label: % inhibition of SMAD7 mRNA expression (%)
Give bare numbers, in %.

Some solved cases for reference:
INSERT INTO results (substance, readout_label, recorded_number) VALUES
  ('798781 (CGTAAGATTCACAGCA; 3-10-3 cEt gapmer, further chemistry not given here) [compound 798781]', '% inhibition of SMAD7 mRNA expression', 41),
  ('736697 (antisense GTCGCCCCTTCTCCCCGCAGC; chemistry not fully specified) [compound 736697]', '% inhibition of SMAD7 mRNA expression', 13),
  ('830121 (AGAATCAAGCCCTGGC; 3-10-3 cEt gapmer, further chemistry not given here) [compound 830121]', '% inhibition of SMAD7 mRNA expression', 21),
  ('790615 (CCAATGAGAATGCTTC; 3-10-3 cEt gapmer, further chemistry not given here) [compound 790615]', '% inhibition of SMAD7 mRNA expression', 63),
  ('830037 (antisense CTATTGGCTGATCTGG; 3-10-3 cEt gapmer, further chemistry not given here) [compound 830037]', '% inhibition of SMAD7 mRNA expression', 42);

Next:
Notebook: 830025 (antisense TTTGTAAATCGAAAGC; 3-10-3 cEt gapmer, further chemistry not given here) [compound 830025] , % inhibition of SMAD7 mRNA expression read as 41

====

# Test system: human SMAD7 mRNA
# assay_comment: Antisense inhibition of human SMAD7 mRNA expression in Hep3B cells by 3-10-3 cEt gapmers, 10,000 nM, electroporation (Example 2)
# Format: cell-based
# condition_label: SMAD7 mRNA, Hep3B cells, 10,000 nM antisense oligonucleotide, electroporation, approximately 24 hours, primer probe set RTS5062, relative to untreated control cells
Strand notation (5' to 3'): a small letter for the sugar, then the base; units joined by * are phosphorothioate-linked, units joined directly phosphodiester-linked; [ ] holds rarer units or linkages, { } end groups; capitals alone tell only the bases. k = constrained ethyl (cEt); [5mC] = 5-methylcytosine; d = 2'-deoxy (DNA)
readout_label: % Inhibition (%)
Give bare numbers, in %.

INSERT INTO results (substance, readout_label, recorded_number) VALUES
  ('829721 (antisense kT*kG*k[5mC]*dG*d[5mC]*d[5mC]*dA*dG*dT*d[5mC]*dT*d[5mC]*d[5mC]*k[5mC]*kG*kG) [compound 829721]', '% Inhibition', 33);

Each substance below has a reported value. Please supply its % Inhibition.
1. 829764 (antisense k[5mC]*k[5mC]*kG*d[5mC]*dT*d[5mC]*d[5mC]*dT*dT*d[5mC]*dA*dG*dT*kT*kT*k[5mC]) [compound 829764]
2. 798764 (kA*k[5mC]*kT*dT*dT*dG*d[5mC]*dA*d[5mC]*dA*dG*d[5mC]*dA*kG*kG*kA; antisense) [compound 798764]

1: 44; 2: 75
